LD50: recorded values
Protocol Notes: Acute toxicity in po dosed Mus musculus (mouse)
Type: organism-based
Measurement Conditions: in vivo
Reported Endpoint: LD50

• CN(Cc1ccc2ccccc2c1)Cc1cccc2cccnc12 = > 2000 mg/kg
• CN(Cc1nc2cc([N+](=O)[O-])ccc2[nH]1)Cc1cccc2cccnc12 = > 2000 mg/kg
• CN(Cc1nc2cc(Cl)ccc2[nH]1)Cc1cccc2cccnc12 = > 2000 mg/kg
• CN(Cc1cccc2cccnc12)Cc1cccc2cccnc12 = 700 mg/kg
• CN(Cc1ccc([N+](=O)[O-])cc1)Cc1cccc2cccnc12 = > 2000 mg/kg
